# Procedure details: qHTS assay to identify small molecule antagonists of the androgen receptor (AR) signaling pathway - cell viability counter screen (AID 743033; also: nearly all actives have a fitted effect of over 45% in size)
# Condition context: AR-bla HEK293 viability, CellTiter-Glo luminescence, 16 h; series mostly up to 58.5 µM
Inconclusive results are not listed. The source made the active and inactive calls. Calls follow the shape of the dose curve; as a rule, active = well fitted cell-killing curve with a large enough effect in the repeat runs; inconclusive = weak or mixed curves; inactive = no such curve, though single readings can be large or run the other way.
Quantity measured: outcome

Example cases with answers are listed next.
CC(C)=CCOc1c2occc2cc2ccc(=O)oc12
inactive
NNC(=O)c1cccnc1
inactive
NS(=O)(=O)C(F)(F)C(F)(F)C(F)(F)C(F)(F)C(F)(F)C(F)(F)C(F)(F)C(F)(F)F
inactive
C(=NC1CCCCC1)=NC1CCCCC1
inactive

Now for another entry.
**Q:** Item CN(C)c1ccc(N(C)C)cc1 : provide outcome
**A:** inactive

* * *

# Procedure details: A CellTox Green Cytotoxicity Assay to monitor cytotoxicity in HepG2 cells - 24 hour (AID 1224878); also: nearly all actives have a fitted effect of over 45% in size
# Condition context: CellTox Green fluorescence; series mostly up to 76.8 µM
Results filed as inconclusive are left out. Activity calls are given as the source filed them. The call rests on the fitted dose curve; in most records, active means well fitted activation curve with a large enough effect in the repeat runs; inconclusive means weak or mixed curves; inactive means flat fitted curve, though single readings scatter.
Quantity measured: outcome

CCCN(CC1CC1)c1c([N+](=O)[O-])cc(C(F)(F)F)cc1[N+](=O)[O-]
inactive
O=C(CBr)Nc1ccc(Cl)cc1C(=O)c1ccccc1F
inactive
O=NN1CCCCCC1
inactive
O=C1CN=C(c2ccccc2)c2cc(Cl)ccc2N1CC1CC1
inactive
C=C(C#N)CCC#N
inactive
CCOP(=S)(OCC)SCn1nnc2ccccc2c1=O
inactive
CCN(C)N=O
inactive
C[C@H]1CNCCc2ccc(Cl)cc21
inactive
COC(=O)C(Br)CBr (stereo not drawn)
inactive
CCOc1nc(F)cc2nc(S(=O)(=O)Nc3c(Cl)cccc3Cl)nn12
inactive

**Q:** Consider the molecule O=C(OC1CCCCC1)c1ccccc1C(=O)OC1CCCCC1 . State its measured outcome.
**A:** inactive

**Q:** Identify outcome associated with the molecule O=C(O)C(F)(F)C(F)(F)C(F)(F)C(F)(F)C(F)(F)C(F)(F)C(F)(F)C(F)(F)C(F)(F)F
**A:** inactive

**Q:** Kindly indicate its recorded outcome. Item: CCOC(=O)CBr
**A:** inactive

* * *

# Procedure details: qHTS assay to identify small molecule agonists of the androgen receptor (AR) signaling pathway in the presence of an antagonist - cell viability counter screen (AID 1259379);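 also: MDA-kb2 human breast cancer cells carrying an MMTV luciferase reporter; nearly all actives have a fitted effect of over 25% in size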
# Condition context: MDA-kb2 viability, CellTiter-Fluor, 16 h; series mostly up to 92.4 µM
Results filed as inconclusive are left out. Active and inactive are the calls of the source. Calls follow the shape of the dose curve; as a rule, active = well fitted cell-killing curve with a large enough effect in the repeat runs; inconclusive = weak or mixed curves, or effect the other way; inactive = flat fitted curve, though single readings scatter.
Respond only with the outcome that fits, drawn from TRUE (active), FALSE (inactive)

Worked examples follow.
CCCCOC(=O)c1ccccc1C(=O)OCc1ccccc1
FALSE
CC[C@H]1C[C@H]2[C@@H]3CCC4=CC(=O)CC[C@@H]4[C@H]3CC[C@]2(C)[C@H]1O
FALSE
O=C(NC(=O)c1c(F)cccc1F)Nc1ccc(OC(F)(F)C(F)OC(F)(F)F)c(Cl)c1 (stereo unspecified)
FALSE
O=C(O)C(F)(F)C(F)(F)C(F)(F)C(F)(F)C(F)(F)C(F)(F)C(F)(F)C(F)(F)C(F)(F)F
FALSE

API: the following record is the query input.
**Q:** Which result was noted for this compound in the test: CCOS(C)(=O)=O
**A:** FALSE

* * *

# Procedure details: qHTS assay to identify small molecule HDAC inhibitors (AID 1259364);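 also: wild-type HCT-116 cells with endogenous class I/II HDAC activity; nearly all actives have a fitted effect of over 45% in size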
# Condition context: HCT-116 HDAC-Glo I/II luminescence, 2 h; series mostly up to 92.4 µM
Results filed as inconclusive are left out. Active and inactive are the calls of the source. The call rests on the fitted dose curve; in most records, active means well fitted inhibition curve with a large enough effect in the repeat runs; inconclusive means weak or mixed curves; inactive means flat fitted curve, though single readings scatter.
Classes to choose from: active, inactive

Examples with answers:
CCCCN(N=O)C(=N)N[N+](=O)[O-]
inactive
CS/C(C)=N/OC(=O)N(C)SN(C)C(=O)O/N=C(\C)SC
inactive
Nc1nc(=S)[nH][nH]1
inactive

**Q:** What was the test verdict on COc1c(C(C)(C)C)cc([N+](=O)[O-])c(C)c1[N+](=O)[O-] ?
**A:** inactive

**Q:** Given CC(=O)CCC(C)=O , state the outcome it received in this test.
**A:** inactive

**Q:** Kindly provide the recorded test outcome for the following compound: CCOP(=O)(OCC)SCCSCC
**A:** inactive

**Q:** Which outcome was assigned to O=S1(=O)OC(c2cc(Br)c(O)c(Br)c2)(c2cc(Br)c(O)c(Br)c2)c2ccccc21 in this test?
**A:** active

**Q:** What was the test verdict on Cc1c(F)c(F)c(COC(=O)C2C(/C=C(\Cl)C(F)(F)F)C2(C)C)c(F)c1F (stereo not drawn) ?
**A:** inactive

* * *

# Procedure details: qHTS RealTime-Glo MT Cell Viability Assay in HEK293 cells - 32 hour (AID 1224868); also: nearly all actives have a fitted effect of over 50% in size
# Condition context: RealTime-Glo luminescence; series mostly up to 76.8 µM
Results filed as inconclusive are left out. The source made the active and inactive calls. Calls come from the whole dose curve; as a rule, active = well fitted cell-killing curve with a large enough effect in the repeat runs; inconclusive = weak or mixed curves, or effect the other way; inactive = flat fitted curve, though single readings scatter.
I would appreciate it if you answered using one of these outcomes: active, inactive

Example results:
C=CC[C@]1(O)CC[C@H]2[C@@H]3CCC4=CC(=O)CCC4=C3C=C[C@@]21C
active
C=CC(=O)OCCCCO
inactive
CCC(C)(NC(=O)c1cc(Cl)c(C)c(Cl)c1)C(=O)CCl (stereo unspecified)
active
ClCCCCBr
inactive
CN1C[C@H](CNC(=O)OCc2ccccc2)C[C@@H]2c3cccc4c3c(cn4C)C[C@H]21
active

Moving on to the next compound.
**Q:** Returns: the outcome recorded for CCCCCCCCCC(=O)O[C@H]1CC[C@H]2[C@@H]3CCC4=CC(=O)CC[C@@H]4[C@H]3CC[C@]12C in this assay.
**A:** inactive

* * *

# Procedure details: qHTS assay to identify small molecule agonists of the hypoxia (HIF-1) signaling pathway - cell viability counter screen (AID 1224844); also: nearly all actives have a fitted effect of over 50% in size
# Condition context: HRE-bla ME-180 viability, CellTiter-Glo luminescence, 17 h; series mostly up to 76.8 µM
Inconclusive results are not listed. Active and inactive are the calls of the source. Calls come from the whole dose curve.
Just give me one of these, please: active, inactive

CCCCCCCCCC(=O)O[C@H]1CC[C@H]2[C@@H]3CCC4=CC(=O)CC[C@@H]4[C@H]3CC[C@]12C
inactive
CCOc1nc(F)cc2nc(S(=O)(=O)Nc3c(Cl)cccc3Cl)nn12
inactive

**Q:** Tell me the assay call for CCc1ccc(C(=O)NN(C(=O)c2cc(C)cc(C)c2)C(C)(C)C)cc1 please.
**A:** inactive

**Q:** Record request — test call for CC1CC(CC2CCC(N)C(C)C2)CCC1N (configuration not stated)
**A:** inactive

**Q:** How did this test come out for Nc1nc(N)nc(N)n1 ?
**A:** inactive

**Q:** # lookup: test call for C=CC(C)=O
**A:** inactive

**Q:** // param item: CCOC(=O)[C@]1(c2ccccc2)Oc2ccccc2[C@@H]1N ; yields the recorded call
**A:** inactive

**Q:** What is the recorded call for this molecule in the test? CO/C=C(/C(=O)OC)c1ccccc1COc1cccc(C(F)(F)F)n1
**A:** inactive

* * *

# Tgt: Cytochrome P450 3A4 (Homo sapiens)
# Procedure details: Cytochrome P450 Family 3 Subfamily A Member 4 (CYP3A4) small molecule antagonists: luciferase reporter qHTS assay (AID 1671201); also: nearly all actives have a fitted effect of over 50% in size
# Condition context: P450-Glo CYP3A4 enzyme, luciferin luminescence, 1 h; series mostly up to 115 µM
Records with an inconclusive call do not appear. Active and inactive are the calls of the source. Calls follow the shape of the dose curve; as a rule, active = well fitted inhibition curve with a large enough effect in the repeat runs; inconclusive = weak or mixed curves; inactive = no such curve, though single readings can be large or run the other way.
Tick one outcome: Y (active), N (inactive)

N#Cc1cc(I)c(O)c(I)c1
N
CCOC(=O)C(Cl)C(C)=O (configuration not stated)
N
C/C(=C\c1ccccc1)[N+](=O)[O-]
Y
CC1(C)[C@H](C=C(Cl)Cl)[C@@H]1C(=O)O[C@@H](C#N)c1cccc(Oc2ccccc2)c1
N
COP(=S)(OC)Oc1cc(Cl)c(I)cc1Cl
Y
CN(C)c1ccc(N(C)C)cc1
Y

Now let's try a different one.
**Q:** Field: outcome | Entry: CCOS(C)(=O)=O
**A:** N

* * *

# Tgt: Cytochrome P450 2C19 (Homo sapiens)
# Procedure details: Cytochrome P450 Family 2 Subfamily C Member 19 (CYP2C19) small molecule antagonists: luciferase reporter qHTS assay (AID 1671197); also: nearly all actives have a fitted effect of over 65% in size
# Condition context: P450-Glo CYP2C19 enzyme, luciferin luminescence, 1 h; series mostly up to 115 µM
Records with an inconclusive call do not appear. Active and inactive are the calls of the source. Calls come from the whole dose curve; as a rule, active = well fitted inhibition curve with a large enough effect in the repeat runs; inconclusive = weak or mixed curves; inactive = no such curve, though single readings can be large or run the other way.
Hi there, use one of these labels in your reply, thanks! Yes = active, No = inactive

CN1[C@@H]2CC[C@H]1CC(OC(=O)c1cc(Cl)cc(Cl)c1)C2 (some centres undefined)
No
CCOC(=O)COc1cc(-c2nn(C)c(OC(F)F)c2Cl)c(F)cc1Cl
Yes
CCOP(=S)(OCC)Oc1cc(Cl)c(Br)cc1Cl
Yes
CC(C)(C)c1cc([N+](=O)[O-])cc([N+](=O)[O-])c1O
Yes
CCOC(=O)CBr
Yes

**Q:** Recorded test outcome, item [O-][Cl+]O
**A:** No

**Q:** Which outcome did this test record for the molecule S=C=NCc1ccccc1 ?
**A:** Yes
